Data credit: patent US20090143279A1

Listed here are compounds together with their documented MTT.
System: cellular dehydrogenase activity
experimental_setup: composite Z-score vs mock-treated (DMSO) wells; Conc 20 μM
Write no unit; give the number alone.

Some compounds with known MTT results, for comparison:
{"columns": ["compound", "MTT"],
 "data": [
  ["CC(=O)[C@H]1CC[C@H]2[C@@H]3CCC4C[C@H](O)CC[C@]4(C)[C@H]3C[C@H](O)[C@]12C (stereo partly drawn) [dihydroxy (3alpha,12alpha)pregnan-20-one]", "−1.160"],
  ["CC1=CC(=O)[C@H]2C(C)(C)CCC[C@]2(C)[C@@]1(O)CCc1ccoc1", 0.084],
  ["CCC(C)C(=O)O[C@@H]1C[C@@]2(C)[C@H](c3ccoc3)OC(=O)CC23OC2(C)OC34[C@H](OC(=O)C(C)C)[C@@]3(O)[C@@H](OC(=O)C5(C)OC5C)[C@@]5(C)C[C@]3(O)[C@@](C)([C@H]5CC(=O)OC)C14O2 (stereo partly drawn)", "−0.737"],
  ["COc1cc(O)c(C(=O)c2ccccc2)cc1O", "−2.331"],
  ["Cc1cc(=O)c2c(O)c3c(cc2o1)OC(C)(C)CC3 [dihydrospatheliachromene]", "−1.802"]
]}

Moving on to the next compound.
Measured MTT for this entry CC1(C)C(=O)C=C[C@@]2(C)C1CC(=O)[C@@]1(C)C3=CC(=O)O[C@@H](c4ccoc4)[C@]3(C)CCC12 (stereo partly drawn) on cellular dehydrogenase activity: −1.467
